Entries annotated with measured viability, T/C
Tested on: 772245-204-R-J1-PDC complex spheroid growth;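 note: compound exposure lasted seven days; 100% = DMSO vehicle control viability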
Assay: Anticancer human tumor 772245-204-R-J1-PDC patient-derived rhabdomyosarcoma cell line growth inhibition [Asc]
Conditions: second compound 0.316 µM; first compound 0.03 µM; hits give low values
value-kind: viability, T/C

{"compound": "NC(=O)C(=Cn1cnc(-c2cc(C(F)(F)F)cc(C(F)(F)F)c2)n1)c1cncnc1 + CNC(C)C(=O)NC1CN(S(=O)(=O)c2cccc(S(=O)(=O)N3CCC4CCC(C(=O)NC(c5ccccc5)c5ccccc5)N4C(=O)C(NC(=O)C(C)NC)C3)c2)CCC2CCC(C(=O)NC(c3ccccc3)c3ccccc3)N2C1=O", "value-kind": "viability, T/C", "measurement": "77.8%"}
{"compound": "Cc1nc(N2CCC3(CC2)COC(C)C3N)c(CO)nc1Sc1ccnc(N)c1Cl (centres undefined) + CNC(C)C(=O)NC1CN(S(=O)(=O)c2cccc(S(=O)(=O)N3CCC4CCC(C(=O)NC(c5ccccc5)c5ccccc5)N4C(=O)C(NC(=O)C(C)NC)C3)c2)CCC2CCC(C(=O)NC(c3ccccc3)c3ccccc3)N2C1=O", "value-kind": "viability, T/C", "measurement": "90.6%"}
{"compound": "CCN1C(C(=O)NC23CCC(C(=O)O)(CC2)CC3)C(c2cccc(Cl)c2F)C2(C(=O)Nc3cc(Cl)ccc32)C12CCCCC2 (centres undefined) + CNC(C)C(=O)NC1CN(S(=O)(=O)c2cccc(S(=O)(=O)N3CCC4CCC(C(=O)NC(c5ccccc5)c5ccccc5)N4C(=O)C(NC(=O)C(C)NC)C3)c2)CCC2CCC(C(=O)NC(c3ccccc3)c3ccccc3)N2C1=O", "value-kind": "viability, T/C", "measurement": "96.4%"}
{"compound": "NC(=O)C(=Cn1cnc(-c2cc(C(F)(F)F)cc(C(F)(F)F)c2)n1)c1cncnc1 + Cc1c(S(C)(=O)=O)c(-c2cc(F)cc(N3CCN(c4ccc(NS(=O)(=O)c5ccc(NC(CCN6CCC(C(=O)OCCCP(=O)(O)O)CC6)CSc6ccccc6)c(S(=O)(=O)C(F)(F)F)c5)cc4)CC3)c2)c(-c2ccc(Cl)cc2)n1C(C)C", "value-kind": "viability, T/C", "measurement": "29.2%"}
